Data origin, for the record: patent US20220127350A1

Molecular target: T1, human IL-17A (human, UniProt Q16552 24-155)
T1 construct: Recombinant human IL-17A (Peprotech Cat. No. 200-17), disulfide-linked homodimer from E. coli; Biotinylated or RPE-labelled in some assays; also called hIL-17A; IL-17A-RPE (labelled)
Experiment: SPR (Biacore T200), direct setup: IL-17A amine-coupled on CM5, scFv as analyte
REPORTED METRIC: Kd (nM)
All answers are understood in nM, so give the number only.

- BINDER: "A1 (humanized anti-IL-17A scFv, CDR graft of 27-07-G02) (scFv, VL-linker-VH; also called 27-07-G02-sc01; 27_07_G02_sc01) scFv: DIQMTQSPSSLSASVGDRVTITCQASQTINYWLAWYQQKPGKAPKLLIYRASTLASGVPSRFSGSGSGTDFTLTISSLQPEDFATYYCQNYYYSTSRSYGFGGGTKLTVLGGGGGSGGGGSGGGGSGGGGSEVQLVESGGGLVQPGGSLRLSCAASGFSFSSDYWMCWVRQAPGKGLEWIGCIYAGDVDDTDYASWARGRFTISRDNSKNTVYLQMNSLRAEDTAVYYCARVDGFDITYFDLWGQGTLVTVSS"
  REPORTED METRIC: "Kd"
  READING: 0.139
- BINDER: "PRO592 (humanized anti-IL-17A scFv, STR graft of 27-31-C04) (scFv, VL-linker-VH; also called 27-31-C04-sc02; 27_31_C04_sc02) scFv: DIQMTQSPSSLSASVGDRVTITCQASESIYRYLSWYQQKPGKAPKLLIYLASTLTSGVPSRFSGSGSGTDFTLTISSLQPEDFATYYCQSNFGTASTTYYNTFGGGTKLTVLGGGGGSGGGGSGGGGSGGGGSEVQLVESGGGLVQPGGSLTLSCAASGFSFSGFYYMCWVRQAPGKGLEWIGCIDTGDGTTYYASWAKGRFTISRDNSKNTVYLQMNSLRAEDTAVYYCARDAAYGGYAYPAHGMDLWGPGTLVTVSS"
  REPORTED METRIC: "Kd"
  READING: 0.0376
- BINDER: "PRO571 (humanized anti-IL-17A scFv, CDR graft of 27-31-C04) (scFv, VL-linker-VH; also called 27-31-C04-sc01; 27_31_C04_sc01) scFv: DIQMTQSPSSLSASVGDRVTITCQASESIYRYLSWYQQKPGKAPKLLIYLASTLTSGVPSRFSGSGSGTDFTLTISSLQPEDFATYYCQSNFGTASTTYYNTFGGGTKLTVLGGGGGSGGGGSGGGGSGGGGSEVQLVESGGGLVQPGGSLRLSCAASGFSFSGFYYMCWVRQAPGKGLEWIGCIDTGDGTTYYASWAKGRFTISRDNSKNTVYLQMNSLRAEDTAVYYCARDAAYGGYAYPAHGMDLWGQGTLVTVSS"
  REPORTED METRIC: "Kd"
  READING: 0.0403

Now let's try a different one.
Input: Look up and state reported Kd for A2 (humanized anti-IL-17A scFv, STR graft of 27-07-G02) (scFv, VL-linker-VH; also called 27-07-G02-sc02) scFv: DIQMTQSPSSLSASVGDRVTITCQASQTINYWLAWYQQKPGKPPKLLIYRASTLASGVPSRFSGSGSGTDFTLTISSLQPEDFATYYCQNYYYSTSRSYGFGGGTKLTVLGGGGGSGGGGSGGGGSGGGGSEVQLVESGGGLVKPEGSLRLSCAASGFSFSSDYWMCWVRQAPGKGLEWIACIYAGDVDDTDYASWARGRFTISRDNSKNTVYLQMNSLRAEDTAVYYCARVDGFDITYFDLWGQGTLVTVSS
Output: 0.0551
